FYI, the data here is from patent US8158638B2.

- System: human lung cancer cell line NCI-H460
- experiment.summary: Cell growth inhibition assay (MTT), NCI-H460
- Type: cell-based
- measurement.conditions: Homo sapiens; NCI-H460, MTT assay, 72 hours; read-out: GI50 value (50% growth inhibitory concentration)
Listed molecules paired with reported log10 of GI50
Values reflect log10 of reported GI50 (nM).

As a guide, the following entries are already answered.
Challenge: Looking for the measured log10 of GI50 of `COc1c(C)cnc(Cn2nc3c4c(nc(N)nc42)SCC=C3)c1C` , can you help?
Response given: 1.93

Challenge: Looking for the measured log10 of GI50 of CNC(=O)C1Cc2nn(Cc3ncc(C)c(OC)c3C)c3nc(N)nc(c23)S1 (centres unmarked) , can you help?
Response given: 2.20

Challenge: Looking for the measured log10 of GI50 of COc1c(C)cnc(Cn2nc3c4c(nc(N)nc42)SC(C(=O)Nc2ncc(C)s2)C3)c1C (centres unmarked) , can you help?
Response given: 1.57

Challenge: Looking for the measured log10 of GI50 of `COc1c(C)cnc(Cn2nc3c4c(nc(N)nc42)SCC(CC(N)=O)=C3)c1C` , can you help?
Response given: 2.29

Challenge: Looking for the measured log10 of GI50 of `Nc1nc2c3c(nn(Cc4ccc5c(c4)OCO5)c3n1)CCS2` , can you help?
Response given: 3.86

***
Challenge: Looking for the measured log10 of GI50 of COc1c(C)cnc(Cn2nc3c4c(nc(N)nc42)SC(C(=O)NC2CC2)C3)c1C (centres unmarked) , can you help?
Response given: 2.66

Challenge: Looking for the measured log10 of GI50 of COc1c(C)cnc(Cn2nc3c4c(nc(N)nc42)SCC(N2CCC[C@H]2C(N)=O)C3)c1C (some centres unmarked) , can you help?
Response given: 2.48

Challenge: Looking for the measured log10 of GI50 of COc1c(C)cnc(Cn2nc3c4c(nc(N)nc42)SCC(NC(C)=O)C3)c1C (centres unmarked) , can you help?
Response given: 2.40
